Biological target: wild type c-kit (Homo sapiens (Human), UniProt P10721)
Sequence (P10721 26-976): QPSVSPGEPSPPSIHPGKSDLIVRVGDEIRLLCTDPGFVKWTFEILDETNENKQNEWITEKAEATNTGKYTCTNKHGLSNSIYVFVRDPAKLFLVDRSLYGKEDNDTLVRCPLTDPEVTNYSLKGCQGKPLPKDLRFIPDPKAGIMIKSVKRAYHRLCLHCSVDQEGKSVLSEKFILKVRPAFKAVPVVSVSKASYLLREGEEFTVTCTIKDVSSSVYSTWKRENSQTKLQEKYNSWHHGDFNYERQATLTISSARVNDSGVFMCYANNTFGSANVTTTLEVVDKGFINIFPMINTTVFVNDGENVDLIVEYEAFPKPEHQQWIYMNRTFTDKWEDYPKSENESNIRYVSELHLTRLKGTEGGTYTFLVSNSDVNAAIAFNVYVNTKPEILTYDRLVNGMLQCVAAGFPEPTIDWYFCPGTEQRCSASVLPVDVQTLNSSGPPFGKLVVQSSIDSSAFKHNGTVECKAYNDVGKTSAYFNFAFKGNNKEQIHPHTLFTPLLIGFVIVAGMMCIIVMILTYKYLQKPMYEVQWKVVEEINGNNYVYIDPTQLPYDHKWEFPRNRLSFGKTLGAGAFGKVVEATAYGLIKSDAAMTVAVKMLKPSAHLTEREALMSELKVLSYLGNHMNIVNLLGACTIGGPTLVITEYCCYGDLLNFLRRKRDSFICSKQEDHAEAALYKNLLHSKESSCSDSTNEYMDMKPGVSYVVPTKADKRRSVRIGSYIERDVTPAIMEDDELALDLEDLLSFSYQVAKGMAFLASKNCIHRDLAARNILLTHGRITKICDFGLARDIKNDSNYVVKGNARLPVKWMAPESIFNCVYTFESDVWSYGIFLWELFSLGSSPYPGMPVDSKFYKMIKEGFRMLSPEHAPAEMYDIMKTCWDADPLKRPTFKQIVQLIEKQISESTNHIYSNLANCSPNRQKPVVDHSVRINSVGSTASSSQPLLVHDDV
Experiment: PathScan phospho c-kit (Tyr719) sandwich ELISA in SCF-stimulated M-07e cells (pKIT assay)
Type: cell-based
Settings: ELISA assay (values not marked *)
Each entry below carries its reported log10 of IC50.
Values below are the log10 of the recorded IC50, with nM as the unit.

Below, each entry is followed by its recorded log10 of IC50 result.
compound: Cc1ccc(-c2nnn(C3CC(F)(F)C3)n2)cc1NC(=O)c1cnn2ccc(N3CC[C@@](C)(O)C3)cc12 (single isomer, unassigned)
log10 of IC50: 0.93
//
compound: CC(C)(O)Cn1cc(-c2ccn3ncc(C(=O)Nc4cc(-n5nnc(C6CC6)n5)ccc4Cl)c3c2)cn1
log10 of IC50: 0.38
//
compound: O=C(Nc1cc(-c2nnn(C3CC(F)(F)C3)n2)c(C2CC2)cc1Cl)c1cnn2ccc(N3CCOCC3)cc12
log10 of IC50: 1.72

Qu. Value lookup for log10 of IC50; key = `COCCCc1ccn2ncc(C(=O)Nc3cc(-c4nnn(C5CN(C(=O)OC)C5)n4)ccc3C)c2c1`
Ans. 2.10
